assay: Pharmacokinetics in rats; type: in vivo; conditions: rat, plasma, iv, 1 mg/kg
observable: AUC(0-t) (ng·h/mL)

> print(dat)
                         structure.notation  observable  measured.result
1  Nc1ccc(/C=C/C(=O)NCc2cc3cc(-c4ccc(C(=O)N5CCC(F)(F)CC5)cc4)cc(-c4ccc(F)cc4)c3o2)cn1    AUC(0-t)            94400

###

target: UniProt:O96013; experiment: Western blot of PAK4 phosphorylation in MIA PaCa-2 cells
Sequence (O96013 whole entry): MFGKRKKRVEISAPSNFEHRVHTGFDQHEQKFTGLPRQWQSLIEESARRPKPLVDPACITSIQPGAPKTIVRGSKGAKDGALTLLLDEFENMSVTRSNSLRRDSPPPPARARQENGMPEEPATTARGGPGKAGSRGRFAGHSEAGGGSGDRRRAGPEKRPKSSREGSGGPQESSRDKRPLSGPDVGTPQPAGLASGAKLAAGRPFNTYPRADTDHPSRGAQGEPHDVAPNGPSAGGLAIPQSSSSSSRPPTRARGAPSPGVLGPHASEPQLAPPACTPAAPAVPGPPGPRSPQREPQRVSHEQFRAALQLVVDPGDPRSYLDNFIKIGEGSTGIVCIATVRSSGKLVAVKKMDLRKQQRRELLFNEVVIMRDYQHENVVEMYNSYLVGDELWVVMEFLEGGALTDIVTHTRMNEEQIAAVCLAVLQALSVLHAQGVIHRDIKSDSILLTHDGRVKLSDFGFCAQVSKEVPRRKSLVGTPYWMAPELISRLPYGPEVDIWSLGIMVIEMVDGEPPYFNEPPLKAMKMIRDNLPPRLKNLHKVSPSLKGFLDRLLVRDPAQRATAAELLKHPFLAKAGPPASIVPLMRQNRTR
observable: IC50 (nM)

> print(dat)
                         structure.notation  measured.result
1  Nc1ccc(/C=C/C(=O)NCc2cc3cc(-c4ccc(C(=O)N5CCC(F)(F)CC5)cc4)cc(-c4ccc(F)cc4)c3o2)cn1             1890
